Source of measurements: patent US4450269A

Test system: Helminthosporium oryzae
Assay: Mycelial growth test
Details: Bipolaris oryzae, 72 h, read-out: Percent Fungus Growth Inhibition, HO, 20 ppm, 72 hours
OBSERVATION_TYPE: inhibition at 20 ppm (%)
Unit % implied. Number only.

Inquiry: Given the entry "O=c1c(Cl)nsnc1Oc1ccc([N+](=O)[O-])cc1" , report its measured inhibition at 20 ppm.
Reply text: 86

Inquiry: Given the entry "CC(=O)Nc1cccc(Oc2nsnc(Cl)c2=O)c1" , report its measured inhibition at 20 ppm.
Reply text: 100

Inquiry: Given the entry "N#CCc1ccc(Oc2nsnc(Cl)c2=O)cc1" , report its measured inhibition at 20 ppm.
Reply text: 100

Inquiry: Given the entry "Nc1ccc(Oc2nsnc(Cl)c2=O)cc1" , report its measured inhibition at 20 ppm.
Reply text: 57

Inquiry: Given the entry "O=c1c(Cl)nsnc1Oc1ccc(F)cc1" , report its measured inhibition at 20 ppm.
Reply text: 100

Inquiry: Given the entry "O=c1c(Cl)nsnc1Oc1cccc(Cl)c1Cl" , report its measured inhibition at 20 ppm.
Reply text: 100

Inquiry: Given the entry "CCCCOc1ccc(Oc2nsnc(Cl)c2=O)cc1" , report its measured inhibition at 20 ppm.
Reply text: 0

Inquiry: Given the entry "CNC(=O)Nc1ccc(Oc2nsnc(Cl)c2=O)cc1" , report its measured inhibition at 20 ppm.
Reply text: 21

Inquiry: Given the entry "CS(=O)(=O)c1ccc(Oc2nsnc(Cl)c2=O)cc1" , report its measured inhibition at 20 ppm.
Reply text: 33

Inquiry: Given the entry "O=c1c(Cl)nsnc1Oc1ccc(Cl)cc1Cl" , report its measured inhibition at 20 ppm.
Reply text: 100

Inquiry: Given the entry "O=c1c(Cl)nsnc1Oc1ccccc1Cl" , report its measured inhibition at 20 ppm.
Reply text: 100

Inquiry: Given the entry "Cc1ccc(Oc2nsnc(Cl)c2=O)cc1" , report its measured inhibition at 20 ppm.
Reply text: 100

Inquiry: Given the entry "Cc1cccc(Oc2nsnc(Cl)c2=O)c1" , report its measured inhibition at 20 ppm.
Reply text: 100

Inquiry: Given the entry "Cc1cc(Oc2nsnc(Cl)c2=O)cc(C)c1Cl" , report its measured inhibition at 20 ppm.
Reply text: 100

Inquiry: Given the entry "CC(=O)Nc1ccccc1Oc1nsnc(Cl)c1=O" , report its measured inhibition at 20 ppm.
Reply text: 65

Inquiry: Given the entry "CSc1ccc(Oc2nsnc(Cl)c2=O)cc1" , report its measured inhibition at 20 ppm.
Reply text: 100

Inquiry: Given the entry "CC(=O)c1ccccc1Oc1nsnc(Cl)c1=O" , report its measured inhibition at 20 ppm.
Reply text: 100

Inquiry: Given the entry "COc1ccc(Oc2nsnc(Cl)c2=O)cc1" , report its measured inhibition at 20 ppm.
Reply text: 73

Inquiry: Given the entry "N#Cc1ccc(Oc2nsnc(Cl)c2=O)cc1" , report its measured inhibition at 20 ppm.
Reply text: 100

Inquiry: Given the entry "COc1ccc(Cl)c(Oc2nsnc(Cl)c2=O)c1" , report its measured inhibition at 20 ppm.
Reply text: 100

Inquiry: Given the entry "Cc1ccc(Cl)c(Oc2nsnc(Cl)c2=O)c1" , report its measured inhibition at 20 ppm.
Reply text: 100

Inquiry: Given the entry "CC(=O)c1cccc(Oc2nsnc(Cl)c2=O)c1" , report its measured inhibition at 20 ppm.
Reply text: 100

Inquiry: Given the entry "O=c1c(Cl)nsnc1Oc1cccc(Cl)c1" , report its measured inhibition at 20 ppm.
Reply text: 76

Inquiry: Given the entry "Cc1cc(C)cc(Oc2nsnc(Cl)c2=O)c1" , report its measured inhibition at 20 ppm.
Reply text: 100

Inquiry: Given the entry "CC(=O)Nc1ccc(Oc2nsnc(Cl)c2=O)cc1" , report its measured inhibition at 20 ppm.
Reply text: 0

Inquiry: Given the entry "O=c1c(Cl)nsnc1Oc1c(Cl)c(Cl)c(Cl)c(Cl)c1Cl" , report its measured inhibition at 20 ppm.
Reply text: 57

Inquiry: Given the entry "Cc1cc(Oc2nsnc(Cl)c2=O)cc(C)c1Br" , report its measured inhibition at 20 ppm.
Reply text: 69

Inquiry: Given the entry "O=c1c(Cl)nsnc1Oc1ccc(Cl)cc1" , report its measured inhibition at 20 ppm.
Reply text: 100

Inquiry: Given the entry "CC(=O)c1ccc(Oc2nsnc(Cl)c2=O)cc1" , report its measured inhibition at 20 ppm.
Reply text: 100

Inquiry: Given the entry "O=C(O)c1ccc(Oc2nsnc(Cl)c2=O)cc1" , report its measured inhibition at 20 ppm.
Reply text: 100

Inquiry: Given the entry "O=c1c(Cl)nsnc1Oc1ccc(Cl)c(Cl)c1" , report its measured inhibition at 20 ppm.
Reply text: 55

Inquiry: Given the entry "O=c1c(Cl)nsnc1Oc1c(Cl)cccc1Cl" , report its measured inhibition at 20 ppm.
Reply text: 100

Inquiry: Given the entry "O=c1c(Cl)nsnc1Oc1cc(Cl)cc(Cl)c1" , report its measured inhibition at 20 ppm.
Reply text: 100

Inquiry: Given the entry "O=c1c(Cl)nsnc1Oc1ccccc1Br" , report its measured inhibition at 20 ppm.
Reply text: 100

Inquiry: Given the entry "Cc1ccc(Oc2nsnc(Cl)c2=O)c(C)c1" , report its measured inhibition at 20 ppm.
Reply text: 100

Inquiry: Given the entry "O=c1c(Cl)nsnc1Oc1ccc(Br)cc1" , report its measured inhibition at 20 ppm.
Reply text: 95

Inquiry: Given the entry "COc1cc(Oc2nsnc(Cl)c2=O)cc(OC)c1C(C)=O" , report its measured inhibition at 20 ppm.
Reply text: 100

Inquiry: Given the entry "CCOC(=O)c1ccc(Oc2nsnc(Cl)c2=O)cc1" , report its measured inhibition at 20 ppm.
Reply text: 100

Inquiry: Given the entry "COc1cc(Cl)cc(Oc2nsnc(Cl)c2=O)c1" , report its measured inhibition at 20 ppm.
Reply text: 100

Inquiry: Given the entry "Cc1cc(Oc2nsnc(Cl)c2=O)ccc1Cl" , report its measured inhibition at 20 ppm.
Reply text: 73

Inquiry: Given the entry "O=c1c(Cl)nsnc1Oc1c(Cl)cc(Cl)cc1Cl" , report its measured inhibition at 20 ppm.
Reply text: 100

Inquiry: Given the entry "Cc1ccccc1Oc1nsnc(Cl)c1=O" , report its measured inhibition at 20 ppm.
Reply text: 100

Inquiry: Given the entry "O=c1c(Cl)nsnc1Oc1ccccc1" , report its measured inhibition at 20 ppm.
Reply text: 100

Inquiry: Given the entry "Cc1cc(Cl)ccc1Oc1nsnc(Cl)c1=O" , report its measured inhibition at 20 ppm.
Reply text: 91

Inquiry: Given the entry C[S+]([O-])c1ccc(Oc2nsnc(Cl)c2=O)cc1 (stereo not shown) , report its measured inhibition at 20 ppm.
Reply text: 87

Inquiry: Given the entry "O=c1c(Cl)nsnc1Oc1ccc(O)cc1" , report its measured inhibition at 20 ppm.
Reply text: 89

* * *

System: Fusarium solani
Assay: Soil treatment, bean root rot
Type: in vivo
Settings: Fusarium solani, soil, 336 h; 150 ppm suspension, 3.8 mg active per pot; read-out: Percent Disease Control, seed/soil, bean root rot
OBSERVATION_TYPE: pest or weed control at 150 ppm, 3.8 mg/pot (%)
Unit % implied. Number only.

Inquiry: Given the entry Cc1cc(Oc2nsnc(Cl)c2=O)cc(C)c1Br [Compound 60] , report its measured pest or weed control at 150 ppm, 3.8 mg/pot.
Reply text: 0

Inquiry: Given the entry CNC(=O)Nc1ccc(Oc2nsnc(Cl)c2=O)cc1 [Compound 28] , report its measured pest or weed control at 150 ppm, 3.8 mg/pot.
Reply text: 95

Inquiry: Given the entry O=c1c(Cl)nsnc1Oc1ccccc1Br [Compound 34] , report its measured pest or weed control at 150 ppm, 3.8 mg/pot.
Reply text: 0

Inquiry: Given the entry O=c1c(Cl)nsnc1Oc1ccc([N+](=O)[O-])cc1 [Compound 9] , report its measured pest or weed control at 150 ppm, 3.8 mg/pot.
Reply text: 0

Inquiry: Given the entry O=C(Nc1ccccc1)Nc1ccc(Oc2nsnc(Cl)c2=O)cc1 [Compound 29] , report its measured pest or weed control at 150 ppm, 3.8 mg/pot.
Reply text: 0

Inquiry: Given the entry CC(=O)Nc1ccc(Oc2nsnc(Cl)c2=O)cc1 [Compound 8] , report its measured pest or weed control at 150 ppm, 3.8 mg/pot.
Reply text: 0

Inquiry: Given the entry Cc1cccc(C)c1Oc1nsnc(Cl)c1=O [Compound 24] , report its measured pest or weed control at 150 ppm, 3.8 mg/pot.
Reply text: 0

Inquiry: Given the entry O=c1c(Cl)nsnc1Oc1ccc(Cl)cc1 [Compound 12] , report its measured pest or weed control at 150 ppm, 3.8 mg/pot.
Reply text: 0

Inquiry: Given the entry O=C(O)c1ccc(Oc2nsnc(Cl)c2=O)cc1 [Compound 50] , report its measured pest or weed control at 150 ppm, 3.8 mg/pot.
Reply text: 0

Inquiry: Given the entry O=c1c(Cl)nsnc1Oc1ccc(Cl)c(Cl)c1 [Compound 16] , report its measured pest or weed control at 150 ppm, 3.8 mg/pot.
Reply text: 0

* * *

Tested on: Uromyces phaseoli
Assay: Spore germination test
Type: cell-based
Conditions: UP, 2.5 ppm, 48 hours
OBSERVATION_TYPE: Spore Germination Rating

Inquiry: Given the entry "Cc1cccc(Oc2nsnc(Cl)c2=O)c1" , report its measured Spore Germination Rating.
Reply text: 2 (40-60)

Inquiry: Given the entry "Cc1cccc(C)c1Oc1nsnc(Cl)c1=O" , report its measured Spore Germination Rating.
Reply text: 0 (0-10)

Inquiry: Given the entry "O=c1c(Cl)nsnc1Oc1ccc([N+](=O)[O-])cc1" , report its measured Spore Germination Rating.
Reply text: 0 (0-10)

Inquiry: Given the entry "COc1ccc(Cl)c(Oc2nsnc(Cl)c2=O)c1" , report its measured Spore Germination Rating.
Reply text: 0 (0-10)

Inquiry: Given the entry "Cc1cc(Cl)ccc1Oc1nsnc(Cl)c1=O" , report its measured Spore Germination Rating.
Reply text: 0 (0-10)

Inquiry: Given the entry "CCOC(=O)c1ccc(Oc2nsnc(Cl)c2=O)cc1" , report its measured Spore Germination Rating.
Reply text: 0 (0-10)

Inquiry: Given the entry "O=c1c(Cl)nsnc1Oc1ccc(Br)cc1" , report its measured Spore Germination Rating.
Reply text: 0 (0-10)

Inquiry: Given the entry "O=c1c(Cl)nsnc1Oc1cccc(Cl)c1Cl" , report its measured Spore Germination Rating.
Reply text: 0 (0-10)

Inquiry: Given the entry "CCCCOc1ccc(Oc2nsnc(Cl)c2=O)cc1" , report its measured Spore Germination Rating.
Reply text: 0 (0-10)

Inquiry: Given the entry "N#CCc1ccc(Oc2nsnc(Cl)c2=O)cc1" , report its measured Spore Germination Rating.
Reply text: 0 (0-10)

Inquiry: Given the entry "CC(=O)Nc1ccc(Oc2nsnc(Cl)c2=O)cc1" , report its measured Spore Germination Rating.
Reply text: 4 (80-100)

Inquiry: Given the entry "O=C(Nc1ccccc1)Oc1ccc(Oc2nsnc(Cl)c2=O)cc1" , report its measured Spore Germination Rating.
Reply text: 2 (40-60)

Inquiry: Given the entry "O=c1c(Cl)nsnc1Oc1ccc(F)cc1" , report its measured Spore Germination Rating.
Reply text: 0 (0-10)

Inquiry: Given the entry "CC(=O)c1ccccc1Oc1nsnc(Cl)c1=O" , report its measured Spore Germination Rating.
Reply text: 1 (10-40)

Inquiry: Given the entry "O=c1c(Cl)nsnc1Oc1ccc([N+](=O)[O-])cc1Cl" , report its measured Spore Germination Rating.
Reply text: 0 (0-10)

Inquiry: Given the entry "Cc1cc(Oc2nsnc(Cl)c2=O)cc(C)c1Cl" , report its measured Spore Germination Rating.
Reply text: 2 (40-60)

Inquiry: Given the entry "O=c1c(Cl)nsnc1Oc1cccc(C(F)(F)F)c1" , report its measured Spore Germination Rating.
Reply text: 0 (0-10)

Inquiry: Given the entry "CC(=O)Nc1ccccc1Oc1nsnc(Cl)c1=O" , report its measured Spore Germination Rating.
Reply text: 4 (80-100)

Inquiry: Given the entry "CS(=O)(=O)c1ccc(Oc2nsnc(Cl)c2=O)cc1" , report its measured Spore Germination Rating.
Reply text: 1 (10-40)

Inquiry: Given the entry "COc1cc(Oc2nsnc(Cl)c2=O)cc(OC)c1C(C)=O" , report its measured Spore Germination Rating.
Reply text: 1 (10-40)

Inquiry: Given the entry "O=c1c(Cl)nsnc1Oc1ccc(Cl)c(Cl)c1" , report its measured Spore Germination Rating.
Reply text: 0 (0-10)

Inquiry: Given the entry "Cc1cc(C)cc(Oc2nsnc(Cl)c2=O)c1" , report its measured Spore Germination Rating.
Reply text: 2 (40-60)
